The measured values listed here are drawn from ChEMBL document CHEMBL1122667.

Molecular target: Choline O-acetyltransferase (Rattus norvegicus) (UniProt P32738)
Sequence (P32738 whole entry): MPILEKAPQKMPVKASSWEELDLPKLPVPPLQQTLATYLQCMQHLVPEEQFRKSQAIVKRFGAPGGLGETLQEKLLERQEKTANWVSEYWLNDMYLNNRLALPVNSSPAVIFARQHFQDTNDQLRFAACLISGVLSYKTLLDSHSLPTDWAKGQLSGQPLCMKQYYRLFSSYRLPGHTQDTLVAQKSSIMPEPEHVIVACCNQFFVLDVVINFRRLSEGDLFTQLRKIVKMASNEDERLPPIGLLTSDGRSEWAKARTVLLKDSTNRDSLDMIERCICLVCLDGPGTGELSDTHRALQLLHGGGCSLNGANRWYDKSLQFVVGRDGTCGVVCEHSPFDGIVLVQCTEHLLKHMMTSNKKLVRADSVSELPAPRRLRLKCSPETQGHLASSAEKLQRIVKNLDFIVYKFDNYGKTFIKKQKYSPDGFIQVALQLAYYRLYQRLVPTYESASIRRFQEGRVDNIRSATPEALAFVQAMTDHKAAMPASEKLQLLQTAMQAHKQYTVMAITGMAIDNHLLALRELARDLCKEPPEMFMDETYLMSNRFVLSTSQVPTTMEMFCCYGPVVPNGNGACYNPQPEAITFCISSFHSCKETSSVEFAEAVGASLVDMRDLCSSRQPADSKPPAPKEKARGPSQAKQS
Experiment: Rate of acetylation of 13.0+/-1.1 umol compound by 1 g of choline acetyltransferase (ChAc) by incubating for 10 minutes at 37 degrees Centigrade
Design: reference not given here
PROPERTY_LABEL: Acetylation (%)
Provide the reading as a plain figure in %.

## Input Please give the documented Acetylation of C[N+](C)(C)CCO
## Output 100

## Input Return the recorded Acetylation value; entry: C[N+]1(C)CCOC(O)(c2ccc(CCc3ccc(C4(O)C[N+](C)(C)CCO4)cc3)cc2)C1 (stereo unspecified)
## Output 3

## Input Return value of Acetylation for input C[N+]1(C)CCOC(O)(c2ccc(CCCCc3ccc(C4(O)C[N+](C)(C)CCO4)cc3)cc2)C1 (stereo unspecified) , no commentary.
## Output 5

## Input Respond only with Acetylation recorded for C[N+]1(C)CCOC(O)(c2ccc(-c3ccc(C4(O)C[N+](C)(C)CCO4)cc3)cc2)C1 (stereo unspecified)
## Output 28

## Input Report Acetylation for C[N+]1(C)CCOC(O)(c2ccc(CCCc3ccc(C4(O)C[N+](C)(C)CCO4)cc3)cc2)C1 (stereo unspecified)
## Output 28

## Input Please list Acetylation recorded for the compound C[N+]1(C)CCOC(O)(c2ccc(Cc3ccc(C4(O)C[N+](C)(C)CCO4)cc3)cc2)C1 (stereo unspecified)
## Output 4
